Assay: Broth DAP test: trained panel rates saltiness of compounds in simple broth
Assay type: in vivo
Set-up: key: DAP score; >7.6 indicates saltiness or salt enhancement in broth
Conditions: single compound in simple broth; best DAP score of tested concentrations 0.1, 1 and 10 ppm; DAP score greater than 7.6 indicates saltiness or salt enhancement
Please provide measured DAP in Broth for the entries that follow.
Numbers only.

Consider the worked cases shown below.
1. COc1cc(C[C@@H](CO)[C@H](CO)Cc2ccc(O[C@@H]3O[C@H](CO)[C@@H](O)[C@H](O)[C@H]3O)c(OC)c2)ccc1O [Compound 48]; 7.8
2. COC1CC(OC2CCC3(C=O)C(CCC4C3CCC3(C)C(C5=CC(=O)OC5)CCC43O)C2)OC(C)C1OC1OC(CO)C(O)C(O)C1O (stereo not drawn) [Compound 76, Apobioside]; 8.0
3. COc1c2ccoc2cc2oc(=O)ccc12 [Compound 62, Bergapten]; 8.0
4. C=CC(C)(O)CC[C@@]1(C)C2=C([C@H](OC(C)=O)[C@H](OC(C)=O)[C@H]1C)C(C)(C)CCC2 (stereo partly drawn) [Compound 29, Vitetrifolin D]; 8.0
5. CC(=O)OC1CCC2(C)C(COc3ccc4ccc(=O)oc4c3)C(C)(O)CCC2C1(C)C (stereo not drawn) [Compound 66, terpenoid coumarins]; 7.8

Batch of 6 compounds: report DAP in Broth for each.
1. COc1cc2c(c(OC)c1OC)-c1c(cc3c(c1OC)OCO3)CC(C)C(C)C2 (stereo not drawn) [Compound 46, Schizandrin B]
2. CC(C)C(=O)c1c2c(c3oc(=O)cc(-c4ccccc4)c3c1O)CC(C(C)(C)O)O2 (stereo not drawn) [Compound 60, Mammea A/AD cyclo F]
3. COc1c2ccoc2c(OCC=C(C)C)c2oc(=O)ccc12 [Compound 65, Phellopterin]
4. C=CCCCCCCCCCCC[C@H](O)C[C@H](O)CO [Compound 82, 16-Heptadecene-1,2,4-triol; Avocadene]
5. CC(C)=CCOc1c2occc2cc2ccc(=O)oc12 [Compound 64, Imperatorin]
6. COc1cc2c(c(OC)c1OC)-c1c(cc(OC)c(OC)c1OC)C[C@H](C)[C@H](C)C2 [Compound 45, Schisandrin A, Deoxyschizandrin]

[reply]
7.8
8.1
7.9
8.3
7.8
8.2

[ask] Which DAP in Broth is listed for C=CC(C)(O)CC/C=C(\C)C(=O)OC1C(OCC2OC(OC(=O)C34CCC(C)(C)CC3C3=CCC5C6(C)CCC(OC7OC(COC8OCC(O)C(O)C8OC8OCC(O)C(O)C8O)C(O)C(O)C7O)C(C)(C)C6CCC5(C)C3(C)CC4O)C(OC3OC(C)C(OC4OCC(O)C(OC5OCC(O)C(O)C5O)C4O)C(O)C3O)C(OC(=O)/C(C)=C/CCC(C)(O)C=C)C2O)OC(C)C(O)C1O (stereo not drawn) [Compound 35] ?
[reply] 8.1

====

Test: Broth DAP test: trained panel rates saltiness of compounds in simple broth
Format: in vivo
Parameters: key: DAP score; >7.6 indicates saltiness or salt enhancement in broth
Details: single compound in simple broth; best DAP score of tested concentrations 0.1, 1 and 10 ppm; DAP score greater than 7.6 indicates saltiness or salt enhancement
Entries whose DAP in Broth is below 8 take Criterion met; entries at or above 8 take Criterion not met.

Below are worked cases with known answers.
1) C=C[C@@]1(C)CC(=O)C2[C@]3(C)C(C[C@@H](OC(C)=O)[C@@]2(O)C1=O)C(C)(C)[C@H](O)[C@H](OC(C)=O)[C@@H]3OC(=O)c1ccccc1 (some centres unmarked); Criterion met
2) COc1c(OC)c(OC)c2c(c1OC)c(=O)c1ccccc1n2C; Criterion not met
3) CC(=O)O[C@@H]1C[C@H]2C(C)(C)C(=O)C=C[C@]2(C)[C@H]2CC[C@]3(C)C(=CC(=O)[C@H]3c3ccoc3)[C@@]21C; Criterion met

[ask] Does C[C@@H]1C[C@@H]2O[C@@]3(O[C@@H]2C(C)(C)O)C(O)[C@@]2(C)C4CCC5C(C)(C)[C@@H](OC6OC[C@H](O)[C@@H](O)[C@@H]6O)CC[C@@]56C[C@@]46CC[C@]2(C)C13 (stereo partly drawn) [Compound 41, Cimigoside; b-D-Xylopyranoside] have DAP in Broth strictly under 8?
[reply] Criterion met

[ask] Does CCCCCC(CC(CCc1ccc(O)c(OC)c1)OC(C)=O)OC(C)=O (centres unmarked) [Compound 3, [6]-Gingerdiacetate] have DAP in Broth strictly under 8?
[reply] Criterion not met

[ask] Does CCC(O)CC(=O)CCc1ccccc1 (centres unmarked) have DAP in Broth strictly under 8?
[reply] Criterion met

[ask] Does CC/C=C\C/C=C\C/C=C\CCCCCCCC(=O)O have DAP in Broth strictly under 8?
[reply] Criterion met

====

Please provide measured DAP in Broth for the entries that follow.
Experiment: Broth DAP test: trained panel rates saltiness of compounds in simple broth
Format: in vivo
Settings: single compound in simple broth; best DAP score of tested concentrations 0.1, 1 and 10 ppm; DAP score greater than 7.6 indicates saltiness or salt enhancement
Give bare numbers.

1. C=CCCCCCCC(C(=O)O)C(O)CC(=O)O (stereo not drawn); 7.8
2. C[C@H]1[C@H](C)CC[C@]2(C(=O)O)CC[C@]3(C)C(=CC[C@@H]4[C@@]5(C)CC[C@H](O)C(C)(C)[C@@H]5CC[C@]43C)[C@H]12; 8.0
3. CC(C)CNC(=O)/C=C/C=C/CCCCCC/C=C/c1ccc2c(c1)OCO2; 8.1
4. CCCCCCCCC/C=C/C(=O)CCc1ccc(O)c(OC)c1 [Compound 2, [10]-Shogaol]; 7.8
5. C/C=C(\C)C(=O)O[C@H]1C[C@@H](OC(C)=O)[C@@]2(C)CO[C@@H]3C2[C@@]1(C)[C@@H](CC(=O)OC)[C@]1(C)C2=C(C)[C@H](c4ccoc4)C[C@H]2O[C@H]31 (stereo partly drawn); 8.0

Batch of 4 molecules: report DAP in Broth for each.
1. CCCCCCCCCCC[C@H](O)CC(=O)CCc1ccc(O)c(OC)c1
2. C=CCCCCCCCCCCCC(CC(O)COC(C)=O)OC(C)=O (stereo not drawn)
3. CC(=O)OC1C(O)COC(OC2C(O)C(C)OC(OC(C)(CCC=C(C)C)C3C(O)CC4(C)C3CCC3C5(C)CCC(OC6OCC(O)C(O)C6O)C(C)(C)C5CCC34C)C2O)C1O (stereo not drawn)
4. C[C@]12CC[C@H](O)C[C@H]1CC[C@@H]1[C@@H]2CC[C@]2(C)[C@@H](C3=CC(=O)OC3)CC[C@]12O

[reply]
1: 7.8; 2: 8.1; 3: 8.1; 4: 8.0

Batch of 5 molecules: report DAP in Broth for each.
1. CC1(C)CC2C1CCC1(C)CC2(O)CCC1O (stereo not drawn)
2. COc1cc(COC(=O)CCCC/C=C/C(C)C)ccc1O [Compound 13, Capsiate]
3. COc1cc2c(c(OC)c1OC)-c1c(cc3c(c1OC)OCO3)C[C@H](C)[C@@](C)(O)C2
4. O=C(/C=C/C=C/c1ccc2c(c1)OCO2)N1CCCCC1
5. CC(C)(O)[C@@H](O)COc1c2ccoc2cc2oc(=O)ccc12

[reply]
7.7
7.9
8.6
8.1
8.0

====

Please provide measured DAP in Broth for the entries that follow.
Assay: Broth DAP test: trained panel rates saltiness of compounds in simple broth
Assay type: in vivo
Parameters: key: DAP score; >7.6 indicates saltiness or salt enhancement in broth
Conditions: single compound in simple broth; best DAP score of tested concentrations 0.1, 1 and 10 ppm; DAP score greater than 7.6 indicates saltiness or salt enhancement

1. CCCC(=O)c1c(OC)cc(OC)c(CCO)c1O; 8.1
2. CCC=CC(=O)CCc1ccccc1; 8.1
3. CCCCC/C=C\CCCCCCc1cc(=O)c2ccccc2n1C; 8.2

Batch of 3 molecules: report DAP in Broth for each.
1. CCCCCCCCCCNC(C)=O [Compound 84, N-Decyl acetamide]
2. C=C[C@@]1(C)CC(=O)C2[C@]3(C)C(C[C@@H](O)[C@@]2(O)C1=O)C(C)(C)[C@H](OC(C)=O)[C@H](OC(C)=O)[C@@H]3OC(=O)c1ccccc1 (stereo partly shown)
3. COc1cc(C2c3cc4c(cc3CC3COC(=O)C32)OCO4)cc(OC)c1OC (stereo not shown)

[reply]
1: 8.1; 2: 8.1; 3: 7.9

[ask] Which DAP in Broth is listed for CCCCC/C=C/C=C/C(O)CCCCCCCC(=O)O (stereo not shown) ?
[reply] 8.0

====

Experiment: Broth DAP test: trained panel rates saltiness of compounds in simple broth
Type: in vivo
Set-up: key: DAP score; >7.6 indicates saltiness or salt enhancement in broth
Settings: single compound in simple broth; best DAP score of tested concentrations 0.1, 1 and 10 ppm; DAP score greater than 7.6 indicates saltiness or salt enhancement
Please provide measured DAP in Broth for the entries that follow.
Answers are plain numbers.

1) COc1cc(CC(C)C(C)Cc2ccc(O)c(OC)c2)ccc1O (stereo not shown) [Compound 49, Dihydrogualaretic acid]; 8.2
2) CC1CCC2(OC1)OC1CC3C4CCC5CC(OC6OC(CO)C(OC7OC(CO)C(O)C(OC8OC(CO)C(O)C(OC9OCC(O)C(O)C9O)C8O)C7O)C(OC7OCC(O)C(O)C7O)C6O)CCC5(C)C4CC(=O)C3(C)C1C2C (stereo not shown); 8.1
3) CCC=CC=CC(O)CC=CCCCCCCCC(=O)O (stereo not shown) [Compound 86, 12-hydroxy-9,13,15-Octadecatrienoic acid]; 8.0
4) COC1CC(OC2CCC3(C=O)C(CCC4C3CCC3(C)C(C5=CC(=O)OC5)CCC43O)C2)OC(C)C1O (stereo not shown) [Compound 77, Apocannoside]; 8.1
5) O=C(O)/C=C/c1ccc(O)c2c1C(C(=O)OC(Cc1ccc(O)c(O)c1)C(=O)O)C(c1ccc(O)c(O)c1)O2 (stereo not shown); 7.8

Batch of 2 molecules: report DAP in Broth for each.
1. C/C=C(\C)C(=O)O[C@H]1[C@H](O)[C@]2(CO)[C@H](O)C[C@]3(C)C(=CCC4[C@@]5(C)CC[C@H](O[C@@H]6O[C@H](C(=O)O)C(O[C@@H]7O[C@H](CO)[C@@H](O)[C@H](O)[C@H]7O)[C@H](O)[C@H]6O[C@@H]6O[C@H](CO)[C@@H](O)[C@H](O)[C@H]6O)[C@](C)(CO)C5CC[C@]43C)[C@@H]2CC1(C)C (stereo partly shown) [Compound 34, Aesculioside A]
2. CC1(C)CC[C@]2(C(=O)O)CC[C@]3(C)C(=CCC4[C@@]5(C)C[C@@H](O)[C@H](O)C(C)(C)C5CC[C@]43C)C2C1 (stereo partly shown)

[reply]
1: 7.7; 2: 8.1

Data credit: patent US10159268B2
